- experiment: PET/CT images, region of interest ratios
- Assay type: in vivo, mice
- stated.conditions: male, BALB/c nude, mouse, iv, total radioactivity, mice with LS174T tumor and inflamed muscle; ^68Ga(IMP288) after TF2; read-out: inflamed muscle-to-background ratio in PET/CT image
*1 amine or outer side, *2 acyl side, *3 side chain or, on linkers, in order; H or OH if unused. Where a SMILES comes first, the peptide text is derived from it. Side-chain parts run from the residue outwards. [ ]: non-standard residue; d: D form. The star is where a group is joined. DOTA = O=C(O)CN1CCN(CC(=O)O)CCN(CC(=O)*)CCN(CC(=O)O)CC1; NH(2-(imidazol-4-yl)ethyl) = c1ncc(CCN*)[nH]1; Suc = O=C(CCC(=O)[*:2])[*:1]
observable: tissue to tissue ratio at 1 h
Write the number on its own, no unit after it.

Per the records, this molecule ( NC(=O)[C@@H](CCCCNC(=O)CNC(=O)CCC(=O)NCCc1c[nH]cn1)NC(=O)[C@@H](CCC(=O)O)NC(=O)[C@@H](CCCCNC(=O)CNC(=O)CCC(=O)NCCc1c[nH]cn1)NC(=O)[C@@H](Cc1ccc(O)cc1)NC(=O)CN1CCN(CC(=O)O)CCN(CC(=O)O)CCN(CC(=O)O)CC1 [^68Ga(IMP288), metal not drawn] ({DOTA}-[dY][dK]([Gly-Suc-NH(2-(imidazol-4-yl)ethyl)])[dE][dK]([Gly-Suc-NH(2-(imidazol-4-yl)ethyl)])-NH2) ) has tissue to tissue ratio at 1 h equal to 8.9

These measurements were taken from patent US20160199524A1.
